TEST_SYSTEM: recombinant full-length human hydroxyacid oxidase 1 (HAO1), the equivalents of hGOX (Homo sapiens (Human), UniProt Q9UJM8)
Sequence (Q9UJM8 whole entry): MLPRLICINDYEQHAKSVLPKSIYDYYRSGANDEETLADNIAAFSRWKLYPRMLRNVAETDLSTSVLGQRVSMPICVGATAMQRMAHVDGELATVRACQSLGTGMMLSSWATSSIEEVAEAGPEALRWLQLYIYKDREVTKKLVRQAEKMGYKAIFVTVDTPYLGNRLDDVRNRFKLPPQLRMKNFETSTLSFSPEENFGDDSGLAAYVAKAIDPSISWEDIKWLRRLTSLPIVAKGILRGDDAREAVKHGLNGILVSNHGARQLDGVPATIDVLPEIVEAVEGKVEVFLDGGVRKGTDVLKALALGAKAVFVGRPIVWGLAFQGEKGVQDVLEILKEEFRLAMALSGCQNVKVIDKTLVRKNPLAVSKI
TEST_PROTOCOL: In-vitro human glycolate oxidase (hGOX) assay (Amplex red fluorescence)
EXPERIMENTAL_CONDITIONS: 6 nM recombinant human GO, 85 μM glycolate, 10 min preincubation
Procedure: The in-vitro glycolate oxidase assay was performed using recombinant full-length human hydroxyacid oxidase 1 (HAO1), the equivalents of hGOX. […] Purified HAO1 was dissolved in assay buffer consisting of 10 mM NaCl, 110 mM KCl, 2 mM MgCl2, 50 mM HEPES (pH 7.4), and 0.01% Triton™ X-100. […] The fluorescence intensity signal was measured on a VariosKan LUX instrument using an excitation of 560 nm and an emission of 590 nm. The IC50 values were calculated using Graphpad Prism. […]
pIC50: −log10 of the molar value.
PROPERTY_NAME: pIC50

// worked examples, pIC50 included
MOLECULE	RESULT
O=C(O)c1nn[nH]c1Oc1ccc(C#Cc2ccc(F)cc2)cc1 [Example 288]	9.00
COc1ccc(Oc2[nH]nnc2C(=O)O)cc1C#Cc1ccccc1 [Example 264]	7.70
O=C(O)c1nn[nH]c1Oc1cccc(C#Cc2ccc3cn[nH]c3c2)c1 [Example 330]	9.00

A = CC(C)C#Cc1cccc(Oc2[nH]nnc2C(=O)O)c1 [Example 10]
B = CC#Cc1cccc(Oc2[nH]nnc2C(=O)O)c1 [Example 6]
In the pair A and B , the larger recorded pIC50 belongs to which? // output: label of the selected item
B
(B: 8.15, A: 7.55)

I = O=C(O)c1nn[nH]c1Oc1cccc(C#CC2CCCCC2)c1 [Example 37]
II = N#Cc1cccc(C#Cc2ccc(Oc3[nH]nnc3C(=O)O)cc2F)c1 [Example 270]
Between I and II , whose recorded pIC50 is greater? // output: label of the selected item
II
(II: 9.00, I: 8.10)

* * *

TEST_PROTOCOL: In-vivo pharmacokinetic evaluation (exposure, AUC fold-over Example 1)
EXPERIMENTAL_CONDITIONS: male CD-1 mice, 10 mg/kg oral gavage in 20% (2-Hydroxypropyl)-β-cyclodextrin, plasma at 0.5, 2 and 6 hours post-dose; AUC expressed as fold-over Example 1
PROPERTY_NAME: AUC Fold over Ex. 1

Record excerpt, results attached:
MOLECULE	AUC Fold over Ex. 1
O=C(O)c1nn[nH]c1Oc1cccc(C#CCC2CCC2)c1 [Example 345]	2.6
O=C(O)c1nn[nH]c1Oc1ccc(C#CCC2CC2)cc1 [Example 301]	0.7

I = O=C(O)c1nn[nH]c1Oc1ccc(C#CC2CCC2)cc1 [Example 24]
II = O=C(O)c1nn[nH]c1Oc1ccc(C#CC2CC2)cc1 [Example 20]
III = CCCC#Cc1cccc(Oc2[nH]nnc2C(=O)O)c1 [Example 300]
IV = CC(C)CC#Cc1cccc(Oc2[nH]nnc2C(=O)O)c1 [Example 343]
Rank items: key AUC Fold over Ex. 1, increasing. Please reply with the labels ordered as requested. Many thanks.
I, II, III, IV
(I: 0.3, II: 0.8, III: 2.5, IV: 4.3)

P = N#Cc1ccc(C#Cc2cc(Oc3[nH]nnc3C(=O)O)ccc2F)cc1 [Example 268]
Q = O=C(O)c1nn[nH]c1Oc1cccc(C#CCC(F)(F)F)c1 [Example 306]
Smaller AUC Fold over Ex. 1 value, P vs Q ? Please reply using the label of the selected record.
P

1 = O=C(O)c1nn[nH]c1Oc1cccc(C#CC2CCC(F)(F)CC2)c1 [Example 347]
2 = O=C(O)c1nn[nH]c1Oc1ccc(C#CC2CCCC2)cc1 [Example 28]
# compare AUC Fold over Ex. 1 for 1 vs 2 ; return the one with the smaller value API: response body contains the label of the selected item.
2
(2: 0.3, 1: 0.7)
